Biological target: Leukotriene B4 receptor 1 (Homo sapiens)
Sequence (Q15722 whole entry): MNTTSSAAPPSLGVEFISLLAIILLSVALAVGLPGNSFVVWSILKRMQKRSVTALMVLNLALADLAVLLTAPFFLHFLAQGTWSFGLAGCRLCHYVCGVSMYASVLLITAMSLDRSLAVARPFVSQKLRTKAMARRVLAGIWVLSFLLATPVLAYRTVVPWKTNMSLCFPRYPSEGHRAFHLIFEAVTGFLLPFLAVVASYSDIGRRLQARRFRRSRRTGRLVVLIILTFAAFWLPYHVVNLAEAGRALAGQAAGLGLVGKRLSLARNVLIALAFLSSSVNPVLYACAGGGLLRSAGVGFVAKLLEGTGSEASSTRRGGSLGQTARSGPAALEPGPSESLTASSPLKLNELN
Assay: Inhibition of LTB4-induced elastase release in human polymorphonuclear leukocytes
Type: functional, cell-based
pIC50: −log10 of the molar value.
MEASURE: pIC50

O=C(O)CCCCCOc1cc(-c2ccccc2)cc(-c2ccccc2)n1 : 5.70
CC(C)(CCCCOc1cc(-c2ccc(N)cc2)cc(-c2ccccc2)n1)C(=O)O : 7.82

I: CC(CCCCOc1cc(-c2ccccc2)cc(-c2ccccc2Cl)n1)C(=O)O (configuration not stated)
II: CC(CCCCOc1cc(-c2ccc3c(c2)OCO3)cc(-c2ccccc2)n1)C(=O)O (configuration not stated)
III: O=C(O)CCCCCCOc1cc(-c2ccccc2)cc(-c2ccccc2)n1
IV: CC(C)(CCCCOc1cc(-c2ccccc2)cc(-c2ccccc2)n1)c1nnn[nH]1
V: COC(=O)CCCCCOc1cc(-c2ccccc2)cc(-c2ccccc2)n1
**Query** Hi! Can you put these in order of pIC50, lowest number first? Please respond with the labels ordered as the question requires.
**Result** III, V, II, I, IV

The measurements presented in this section are drawn from ChEMBL document CHEMBL1125359.
